System: TK-10
Experiment: NCI tumour cell line growth inhibition, 48 h
The source made the active and inactive calls. Rule as the data show it: active = GI50 up to about 1.1 µM and inactive = higher.
GI50 for assorted compounds

CC1=C(SCc2ccccc2)C(=O)c2ccccc2C1=O : 21 µM (inactive)
COc1ccc(-c2cc(-c3ccc(C)cc3)n(C3OC(COC(C)=O)C(OC(C)=O)C(OC(C)=O)C3OC(C)=O)c(=S)c2C#N)cc1 (stereo unspecified) : > 100 µM (inactive)
CCOC(=O)NC(Nc1ccc(C(=O)OCC)cc1)(C(F)(F)F)C(F)(F)F : > 100 µM (inactive)
CC(=O)OCC1OC(N2C(=O)[C@@H](Oc3ccccc3)[C@H]2/C=C/c2ccccc2)C(OC(C)=O)C(OC(C)=O)C1OC(C)=O (stereo partly specified) : > 100 µM (inactive)
CC(C)OC1OC(CO)C(O)CC1n1cc(F)c(=O)[nH]c1=O (stereo unspecified) : > 100 µM (inactive)
CC(=O)OC1COC(N2C(=O)C(=O)c3cc(Br)ccc32)C(OC(C)=O)C1OC(C)=O (stereo unspecified) : > 100 µM (inactive)

Ask: Answer with the recorded GI50 for the compound listed here: O=C1C=C(NCCc2ccc(O)cc2)C(=O)C=C1NCCc1ccc(O)cc1
Reply: > 100 µM (inactive)

Ask: Input CC(=N)OC1CC2CCC1(C)C2(C)C (stereo unspecified) , output reported GI50.
Reply: > 100 µM (inactive)

Ask: For the compound CN1C(=O)CC(CC(=O)C2CCCCC2=O)CC1=O (stereo unspecified) , give its measured GI50 value.
Reply: > 100 µM (inactive)

Ask: Determine its reported GI50: COc1ccc(C2C(Cl)C(=O)N2NC(=O)c2ccccc2O)cc1OC (stereo unspecified)
Reply: > 100 µM (inactive)

Ask: Assign GI50 to the following record: C1CCNCC1.CN(C)c1ccc(/C=C2/NC(=S)NC2=O)cc1
Reply: 59 µM (inactive)

###

Test system: M14
Test: NCI tumour cell line growth inhibition, 48 h
Calls of active or inactive are those of the source. No stated cut-off is given here; in the data, active = GI50 up to about 1.1 µM and inactive = higher.
attribute.measured: GI50

Consider the following illustrative entries.
C=C1[C@@H](OC(C)=O)/C=C/C2C3C(=O)[C@@](C)(OC(C)=O)[C@H]([C@H](OC(C)=O)[C@]4(O)[C@@H](C)C(=O)O[C@H]4[C@H]1Cl)[C@@]23C (stereo partly drawn) : > 100 µM (inactive)
COc1ccc(Nc2nc3ccccc3nc2-c2cccs2)cc1OC : > 10 µM (inactive)
COc1ccc(O[C@H](CO)C[C@@H]2COC(C)(C)O2)cc1 : > 100 µM (inactive)
CN(C)c1ccc(/C=C/C=C\c2cc(/C=C/C=C/c3ccc(N(C)C)cc3)[s+]c3ccccc23)cc1.[O-][Cl+3]([O-])([O-])[O-] : 14.5 µM (inactive)
Cn1c(=O)nc2n(-c3cccc(F)c3)c3ccccc3nc-2c1=O : 18.7 µM (inactive)
Cc1ccc(S(=O)(=O)NC2=NS(=O)(=O)c3cc(C)c(Cl)cc3S2)cc1 : 81.8 µM (inactive)
COc1ccc(C2C(Cl)C(=O)N2NC(=O)c2ccccc2O)cc1OC (stereo not drawn) : > 100 µM (inactive)
O=S(=O)(/C=C/c1ccc(F)cc1)Cc1ccc(CS(=O)(=O)/C=C/c2ccc(F)cc2)cc1 : > 100 µM (inactive)

Ask: Give GI50 for the following compound: O=C(O)C1(Cc2ccccc2)Cc2ccccc2C1
Reply: > 100 µM (inactive)

Ask: Return GI50 for the following compound: C[C@@H](NC(=O)Nc1cccc(C(=O)Nc2cc(C(C)(C)C)ccc2C(=O)O)n1)c1ccccc1
Reply: 31 µM (inactive)

Ask: Report GI50 for Cc1cc(C)[n+](CCOc2ccc(/C(=C(/Cl)c3ccccc3)c3ccccc3)cc2)c(C)c1.[O-][Cl+3]([O-])([O-])[O-]
Reply: 2 µM (inactive)

Ask: Given Cn1c(=O)n2c(=O)n(C)c(=O)n2c1=O , respond with its GI50.
Reply: > 100 µM (inactive)

Ask: Give the reported GI50 for this compound. CN(C)CCNC(=O)Cn1ccc(=O)c2cc([N+](=O)[O-])ccc21
Reply: > 100 µM (inactive)
